Tested on: Fis (His-tagged) (Pseudomonas putida), ORF:eb421da7
Sequence: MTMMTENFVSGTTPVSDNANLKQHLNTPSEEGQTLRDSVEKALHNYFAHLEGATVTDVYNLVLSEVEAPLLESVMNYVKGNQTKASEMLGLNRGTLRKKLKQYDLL
test.protocol: EMSA with competition
applied.conditions: EMSA: 24 mM Tris/HCl pH 7.5, 50 mM KCl, 10 mM MgCl2, 1 mM CaCl2, 0.1 mM EDTA, 5% glycerol, 0.05 ug/ul BSA, 0.05 ug/ul salmon sperm DNA, 20 min room …
reported.property: binding

{"sequence.input": "TTTGGATCCGAGTCACAAGCAGCTATGTGTCGCAAATCAAAGAGATGACCGACGAGTGCGTGAATAATGGTATCCCGATCATTGAAAATCGCTTGCGGATATTGAATGCAAGAAGGCAAGAATCCGCACTCTATACACGTAGGCCGACTAACAAGCCACAGATATGCGCCAACAAACCAGCGCCTGTTTACTGACAGTGACTAAGCTGGAACCCAAAGCCCTTGCATGAATTCAA (double strand) [Fis-A5-Fis-A6mut fragment]", "reported.result": "binds more weakly"}
{"sequence.input": "AGGATCCGAAACGCTTGGCTAAGGTACAAATATCAATGTGACATTACATTGCCGATTGTTTAGGATGGCATGTATAAGGTCAATAGTTTGGCAGTCAGGCAATTCCAAAAAGTTATAGACGGAATATTGACGTCACCCACGTGCCGAGATCATCGACATAGTTCCGCCTGAAGTGGCTAGCAAGCGCCGCTCTGGCAGGGAAGTACC (double strand) [Fis-A1mut-Fis-A2 fragment]", "reported.result": "binds more weakly"}
{"sequence.input": "AGGATCCGAAACGCTTGGCTAAGGTACAAATATCAATGTGACATTACATTGCCGATTGTTTAGGATGGCATGTATAAGCTGAATAGTTTGGAGGTCAGGCAATTCCAAAAAGTTATAGACGGAATATTGACGTCAAAAACGTCAAGAGATCATCGACATAGTTCCGCCTGAAGTGGCTAGCAAGCGCCGCTCTGGCAGGGAAGTACC (double strand) [Fis-A1-Fis-A2mut fragment]", "reported.result": "binds more weakly"}
